- ASSAY INFO: Stability in CWE with protease inhibitor cocktail (PIC), capillary zone electrophoresis
- Type: in vitro ADME, human
- CONDITION SET: 1 mg/ml in PBS mixed 1:1 with CWE (1 mg/ml protein, pool of 5 donors) in PBS containing PIC (final 1:140 v/v), 37°C, 96 h; CZE, ratio to imidazole, 0 h = 100%; experiment 3 of 3
Where no end group is shown, it is not given here.
VALUE KIND: Percentage intact, CWE + PIC 96h (%)

Sample records with Percentage intact, CWE + PIC 96h:
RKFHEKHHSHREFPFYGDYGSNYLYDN [Hst2] = 62.2105
cyclo(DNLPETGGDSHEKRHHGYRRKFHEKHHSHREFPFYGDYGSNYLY) [cHst1] = 51.0863

I = SHREFPFYGDYGS [mad-Hst1]
II = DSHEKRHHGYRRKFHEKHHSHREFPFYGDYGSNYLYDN [Hst1]
Two entries are listed, I and II . Which one carries the higher Percentage intact, CWE + PIC 96h? API: response body contains the label of the selected item. I
(I: 77.8206%, II: 21.2156%)
